system.under.test: T1, hFc-hROR1 (extracellular domain of human ROR1 fused to the Fc domain of human IgG1) (human, UniProt Q01973 30-406)
T1 construct: extracellular domain; also called hFc-ROR1; not shown: Fc domain of human IgG1
assay.overview: SPR (Biacore X100); hFc-hROR1 captured by anti-human Fcγ antibody on CM5; Fab as analyte; 1:1 Langmuir fit
parameter.measured: kon (M⁻¹ s⁻¹)
Just the number in M⁻¹ s⁻¹, nothing appended.

Ask: Give the reported kon for this binder. ERR1-301 chimeric rabbit/human Fab (Fab, V domains shown, Chimeric rabbit/human Fab with His tag, expressed in E. coli (pET11a); lambda light chain) VH: QEQLEESGGGLVTPGGSLTLTCTASGFTISTYHMSWVRQAPGKGLEWIGSIYAGSGSTYYASWVNGRFTISSNTTQNTVSLQMNSLTVADTATYFCARDHPSYGMDLWGPGTLVTVSS VL: SYELTQLPSVSVSLGQTARITCGGNSIGSKAVNWYQQKPGLAPGLLIYDDDERPSGVPDRFSASNSGDTATLTISGAQAEDEADYYCQLWDSSAVAYVFGGGTQLTVTG
Result: 849000

The reported measurements were obtained from patent US20220153839A1.
